Target: Hsα2A-AR (human α2A adrenergic receptor) (Homo sapiens, UniProt P08913)
Sequence (P08913 whole entry): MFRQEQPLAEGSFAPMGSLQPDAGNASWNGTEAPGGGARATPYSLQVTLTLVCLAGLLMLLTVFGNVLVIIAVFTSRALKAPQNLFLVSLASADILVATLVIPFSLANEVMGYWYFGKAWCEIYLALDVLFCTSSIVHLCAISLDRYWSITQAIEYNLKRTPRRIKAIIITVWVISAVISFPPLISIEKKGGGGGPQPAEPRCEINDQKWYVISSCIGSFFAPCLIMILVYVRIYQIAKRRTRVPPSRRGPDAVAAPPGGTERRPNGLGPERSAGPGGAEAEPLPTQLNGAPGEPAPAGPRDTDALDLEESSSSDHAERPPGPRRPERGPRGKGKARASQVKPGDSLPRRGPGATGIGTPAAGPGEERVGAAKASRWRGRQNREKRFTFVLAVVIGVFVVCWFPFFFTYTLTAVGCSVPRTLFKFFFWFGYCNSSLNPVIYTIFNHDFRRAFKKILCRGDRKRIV
Attribute: Ki
Reply with just the number (in nM).

In [3]: df
Out[3]:
                                   compound                           subject_of_test  measured_number
0  COC(c1cnc[nH]1)c1cccc(C)c1C (stereo not drawn)  Hsα2A-AR (human α2A adrenergic receptor) (Homo sapiens, UniProt P08913)             1310
1  Cc1c(C(O)c2cnc[nH]2)cccc1C(F)(F)F (stereo not drawn)  Hsα2A-AR (human α2A adrenergic receptor) (Homo sapiens, UniProt P08913)             3210
2               C=C(c1cnc[nH]1)c1cccc(F)c1C  Hsα2A-AR (human α2A adrenergic receptor) (Homo sapiens, UniProt P08913)              494
3  Cc1cccc(C(O)c2cnc[nH]2)c1C (stereo not drawn)  Hsα2A-AR (human α2A adrenergic receptor) (Homo sapiens, UniProt P08913)              356
4               C=C(c1cnc[nH]1)c1cccc(C)c1C  Hsα2A-AR (human α2A adrenergic receptor) (Homo sapiens, UniProt P08913)              109

# next compound below
Qu. Give measured Ki for Cc1cccc(C(O)c2cnc[nH]2)c1 (stereo not drawn) (Hsα2A-AR (human α2A adrenergic receptor) (Homo sapiens, UniProt P08913)).
Ans. 4200

----------
Tested on: AeOctR (Aedes octopamine receptor), cloned α-like OctR
Assay: OctR activation: change in intracellular calcium (CALCIUM 6QR dye, FlexStation 3) in stably transfected mammalian cells
Assay type: cell-based, Aedes aegypti
Conditions: agonist
Each item that follows carries a reported pEC50.
pEC50 field: float, defined as -log10 of concentration (mol/L).

Qu. Read the entry Cc1cccc(C(O)c2cnc[nH]2)c1C (stereo not shown) and write its reported pEC50.
Ans. 6.20

Qu. Supply reported pEC50 belonging to this compound: C=C(c1cnc[nH]1)c1cccc(F)c1C
Ans. 7.09

Qu. Answer with the recorded pEC50 of C=C(c1cnc[nH]1)c1cccc(C)c1C only.
Ans. 7.92

----------
System: Anopheles gambiae mosquito isoform A OctR (AgAOctR)
Assay: OctR activation, change in intracellular calcium
Type: cell-based
Settings: AgAOctR over Homo sapien α2-AR subtypes
property-measured: selectivity Ki(Hsα2-AR)/EC50(OctR)

>>> print(df.to_string())
                                   compound            result
0  Cc1c(C(O)c2cnc[nH]2)cccc1C(F)(F)F (centres unmarked)  highly selective
1               C=C(c1cnc[nH]1)c1cccc(C)c1C  highly selective
2              C=C(c1cnc[nH]1)c1cccc(Cl)c1C  highly selective
3  COC(c1cnc[nH]1)c1cccc(C)c1C (centres unmarked)  highly selective

Qu. Supply selectivity Ki(Hsα2-AR)/EC50(OctR) measured with Anopheles gambiae mosquito isoform A OctR (AgAOctR) for C=C(c1cnc[nH]1)c1cccc(C(F)(F)F)c1C .
Ans. highly selective

Qu. Would you please give the reported selectivity Ki(Hsα2-AR)/EC50(OctR) of C=C(c1cnc[nH]1)c1cccc(F)c1C with Anopheles gambiae mosquito isoform A OctR (AgAOctR)?
Ans. highly selective

Qu. Look up and report selectivity Ki(Hsα2-AR)/EC50(OctR), with Anopheles gambiae mosquito isoform A OctR (AgAOctR) as system, for Cc1cccc(C(O)c2cnc[nH]2)c1 (centres unmarked)
Ans. highly selective

Qu. Fill in selectivity Ki(Hsα2-AR)/EC50(OctR) for Cc1cccc(C(O)c2cnc[nH]2)c1C (centres unmarked) tested with Anopheles gambiae mosquito isoform A OctR (AgAOctR).
Ans. highly selective

----------
Biological target: PaOctR (Periplaneta octopamine receptor), cloned α-like OctR (Periplaneta americana, UniProt Q7YWB7)
Construct: Gq calcium readout
Sequence (Q7YWB7 1-628): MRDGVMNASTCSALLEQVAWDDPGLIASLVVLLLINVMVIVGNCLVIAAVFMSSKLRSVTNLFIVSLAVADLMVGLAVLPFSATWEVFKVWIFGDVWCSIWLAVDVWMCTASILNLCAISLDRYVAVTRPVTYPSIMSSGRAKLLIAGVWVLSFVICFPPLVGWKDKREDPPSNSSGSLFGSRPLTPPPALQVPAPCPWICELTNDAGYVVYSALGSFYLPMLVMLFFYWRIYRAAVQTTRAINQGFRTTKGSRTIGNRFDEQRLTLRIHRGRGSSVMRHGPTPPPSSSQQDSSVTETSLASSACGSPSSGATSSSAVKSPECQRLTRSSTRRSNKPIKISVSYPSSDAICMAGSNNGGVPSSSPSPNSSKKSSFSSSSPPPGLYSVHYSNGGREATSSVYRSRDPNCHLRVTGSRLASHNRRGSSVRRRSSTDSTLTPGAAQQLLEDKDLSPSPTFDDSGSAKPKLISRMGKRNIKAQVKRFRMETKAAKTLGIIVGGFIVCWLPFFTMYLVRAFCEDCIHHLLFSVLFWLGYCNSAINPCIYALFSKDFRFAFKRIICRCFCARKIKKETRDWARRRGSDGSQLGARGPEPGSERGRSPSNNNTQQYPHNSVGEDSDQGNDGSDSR
Assay: OctR activation: change in intracellular calcium (CALCIUM 6QR dye, FlexStation 3) in stably transfected mammalian cells
Details: agonist
property-measured: pEC50
// field semantics: pEC50 = negative decimal log of concentration (mol/L)

A selection of reference data follows.
In [3]: df
Out[3]:
                                   molecule  measured_number
0  Cc1c(C(O)c2cnc[nH]2)cccc1C(F)(F)F (stereo not shown)             7.09
1               C=C(c1cnc[nH]1)c1cccc(C)c1C             9.36
2  COC(c1cnc[nH]1)c1cccc(C)c1C (stereo not shown)             7.07

Qu. Give pEC50 for the following molecule: Cc1cccc(C(O)c2cnc[nH]2)c1C (stereo not shown)
Ans. 8.23

----------
Molecular target: Hsα2C-AR (human α2C adrenergic receptor) (Homo sapiens, UniProt P18825)
Sequence (P18825 1-462): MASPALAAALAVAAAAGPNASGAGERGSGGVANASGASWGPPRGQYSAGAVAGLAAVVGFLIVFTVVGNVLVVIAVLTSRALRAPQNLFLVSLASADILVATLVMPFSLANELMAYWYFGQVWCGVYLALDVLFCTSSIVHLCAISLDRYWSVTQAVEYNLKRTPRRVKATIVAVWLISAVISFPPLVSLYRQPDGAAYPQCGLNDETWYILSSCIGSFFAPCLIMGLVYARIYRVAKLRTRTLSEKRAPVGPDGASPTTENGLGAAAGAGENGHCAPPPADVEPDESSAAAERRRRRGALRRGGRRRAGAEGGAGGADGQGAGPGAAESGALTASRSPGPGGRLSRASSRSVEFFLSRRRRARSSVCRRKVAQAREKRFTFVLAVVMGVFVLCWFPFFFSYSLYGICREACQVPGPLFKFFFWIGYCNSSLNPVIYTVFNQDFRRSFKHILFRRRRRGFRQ
property-measured: Ki (nM)
Express it in nM; write the number only.

Use the examples below as a reference point.
                                   compound  measured_number
0  Cc1cccc(C(O)c2cnc[nH]2)c1 (stereo not drawn)             9440
1  Cc1cccc(C(O)c2cnc[nH]2)c1C (stereo not drawn)              558
2  COC(c1cnc[nH]1)c1cccc(C)c1C (stereo not drawn)              973

Qu. Please respond with reported Ki (system Hsα2C-AR (human α2C adrenergic receptor) (Homo sapiens, UniProt P18825)) for C=C(c1cnc[nH]1)c1cccc(C)c1C .
Ans. 231

Qu. Determine reported Ki for C=C(c1cnc[nH]1)c1cccc(F)c1C ; test system: Hsα2C-AR (human α2C adrenergic receptor) (Homo sapiens, UniProt P18825).
Ans. 3530

Qu. State Ki on Hsα2C-AR (human α2C adrenergic receptor) (Homo sapiens, UniProt P18825). Entry: Cc1c(C(O)c2cnc[nH]2)cccc1C(F)(F)F (stereo not drawn)
Ans. 2110

----------
Molecular target: DmOctR (Drosophila octopamine receptor), cloned α-like OctR (Drosophila melanogaster)
Construct: Gq calcium readout
Sequence (Q7JQF1 whole entry): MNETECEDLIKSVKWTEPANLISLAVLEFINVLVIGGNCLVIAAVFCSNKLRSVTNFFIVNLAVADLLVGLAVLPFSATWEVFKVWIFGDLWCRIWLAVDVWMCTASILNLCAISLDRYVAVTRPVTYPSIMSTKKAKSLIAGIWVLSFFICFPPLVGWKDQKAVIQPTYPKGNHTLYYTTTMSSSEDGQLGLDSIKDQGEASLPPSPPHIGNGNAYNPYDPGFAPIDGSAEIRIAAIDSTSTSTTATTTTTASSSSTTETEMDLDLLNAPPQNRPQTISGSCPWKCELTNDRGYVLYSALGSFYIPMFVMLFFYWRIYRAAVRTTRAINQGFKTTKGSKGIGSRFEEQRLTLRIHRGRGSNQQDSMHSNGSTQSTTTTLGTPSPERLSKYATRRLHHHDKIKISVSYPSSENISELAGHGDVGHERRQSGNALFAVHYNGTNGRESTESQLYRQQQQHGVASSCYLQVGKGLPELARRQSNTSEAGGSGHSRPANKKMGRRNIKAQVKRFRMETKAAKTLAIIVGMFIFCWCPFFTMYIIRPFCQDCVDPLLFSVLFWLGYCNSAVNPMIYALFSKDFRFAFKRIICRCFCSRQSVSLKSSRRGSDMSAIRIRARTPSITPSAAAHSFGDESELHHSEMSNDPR
Assay: OctR activation: change in intracellular calcium (CALCIUM 6QR dye, FlexStation 3) in stably transfected mammalian cells
Settings: agonist
Catalogue of compounds with associated pEC50
API: returns pEC50 as number; meaning -log10 of concentration in mol/L.

Qu. Report measured pEC50; entry is C=C(c1cnc[nH]1)c1cccc(C)c1C
Ans. 8.06

Qu. // fetch pEC50 given entry Cc1cccc(C(O)c2cnc[nH]2)c1C (stereo not shown)
Ans. 7.24

Qu. Input Cc1c(C(O)c2cnc[nH]2)cccc1C(F)(F)F (stereo not shown) , output reported pEC50.
Ans. 6.44

Qu. Find the measured pEC50 of COC(c1cnc[nH]1)c1cccc(C)c1C (stereo not shown) and report it.
Ans. 6.07

----------
Target: Drosophila melanogaster α-like OctR (DmOctR) (Drosophila melanogaster, UniProt Q7JQF1)
Construct: expressed in transfected cells
Assay: OctR activation, change in intracellular calcium
Assay type: cell-based
Conditions: 100 μM; normalized to octopamine at a supersaturating concentration; FIG. 1A
property-measured: agonist response (change in intracellular calcium) relative to octopamine

Qu. Note down agonist response (change in intracellular calcium) relative to octopamine recorded for CC1CCC(C(C)(C)O)C(O)C1 (stereo not shown)
Ans. < 25%

----------
Biological target: human α2C adrenergic receptor (α2c-AR) (Homo sapiens, UniProt P18825)
Experiment: Intracellular cyclic AMP (cAMP-Glo) functional assay, stably transfected mammalian cells
Description: Functional expression of cloned arthropod OctRs and human α2-ARs: The cDNAs for α-like OctRs from different arthropod species (e.g., Anopheles gambiae, Aedes aegypti, Periplaneta americana, Drosophila melanogaster, Ixodes scapularis, Balanus improvises) and for α2-AR subtypes from humans were individually subcloned into mammalian expression vectors. […] The radioligand was [3H]rauwolscine and non-specific binding was determined in the presence of 10 μM atipamezole. […]
property-measured: EC50 (µM)
State just the number; it will be interpreted in µM.

Qu. Fetch value of EC50 on human α2C adrenergic receptor (α2c-AR) (Homo sapiens, UniProt P18825) for C=C(c1cnc[nH]1)c1cccc(F)c1C [AZ1411] .
Ans. 0.931
